Measured values drawn from ChEMBL document CHEMBL1147984 for this set.

Let's go through some Ki measurements on SW-620 together.

Request body: readout Ki, system SW-620, query COc1cc2c(Nc3cc(CC(=O)Nc4cccc([N+](=O)[O-])c4)[nH]n3)ncnc2cc1OCCCN1CCC(CO)CC1 . Return the value.
> 10 µM

Request body: readout Ki, system SW-620, query COc1cc2c(Nc3cc(CC(=O)Nc4cccc(O)c4)[nH]n3)ncnc2cc1OCCCN1CCC(CO)CC1 . Return the value.
> 10 µM

Request body: readout Ki, system SW-620, query COc1cc2c(Nc3cc(CC(=O)Nc4cccc(C#N)c4)[nH]n3)ncnc2cc1OCCCN1CCC(CO)CC1 . Return the value.
> 10 µM
